tested on: HUVEC; assay: Inhibition of VEGF-induced HUVEC proliferation; format: functional, cell-based; conditions: Homo sapiens
measured-property: IC50 (nM)
// units = nM; emit number, no label

Prompt line: Requested field: IC50. Item: O=C(CC(Nc1ccc(Oc2cc(NC(=O)N3CCCC3)ncn2)c(F)c1)C(F)(F)F)Nc1ccccc1 (stereo unspecified)
Response line: 40

###

target: Vascular endothelial growth factor receptor 2 (Homo sapiens, UniProt P35968); assay: Inhibition of recombinant GST-fused VEGFR2 expressed in baculovirus infected Sf9 cells by DELFIA
Sequence (P35968 whole entry, the tested form may be a part): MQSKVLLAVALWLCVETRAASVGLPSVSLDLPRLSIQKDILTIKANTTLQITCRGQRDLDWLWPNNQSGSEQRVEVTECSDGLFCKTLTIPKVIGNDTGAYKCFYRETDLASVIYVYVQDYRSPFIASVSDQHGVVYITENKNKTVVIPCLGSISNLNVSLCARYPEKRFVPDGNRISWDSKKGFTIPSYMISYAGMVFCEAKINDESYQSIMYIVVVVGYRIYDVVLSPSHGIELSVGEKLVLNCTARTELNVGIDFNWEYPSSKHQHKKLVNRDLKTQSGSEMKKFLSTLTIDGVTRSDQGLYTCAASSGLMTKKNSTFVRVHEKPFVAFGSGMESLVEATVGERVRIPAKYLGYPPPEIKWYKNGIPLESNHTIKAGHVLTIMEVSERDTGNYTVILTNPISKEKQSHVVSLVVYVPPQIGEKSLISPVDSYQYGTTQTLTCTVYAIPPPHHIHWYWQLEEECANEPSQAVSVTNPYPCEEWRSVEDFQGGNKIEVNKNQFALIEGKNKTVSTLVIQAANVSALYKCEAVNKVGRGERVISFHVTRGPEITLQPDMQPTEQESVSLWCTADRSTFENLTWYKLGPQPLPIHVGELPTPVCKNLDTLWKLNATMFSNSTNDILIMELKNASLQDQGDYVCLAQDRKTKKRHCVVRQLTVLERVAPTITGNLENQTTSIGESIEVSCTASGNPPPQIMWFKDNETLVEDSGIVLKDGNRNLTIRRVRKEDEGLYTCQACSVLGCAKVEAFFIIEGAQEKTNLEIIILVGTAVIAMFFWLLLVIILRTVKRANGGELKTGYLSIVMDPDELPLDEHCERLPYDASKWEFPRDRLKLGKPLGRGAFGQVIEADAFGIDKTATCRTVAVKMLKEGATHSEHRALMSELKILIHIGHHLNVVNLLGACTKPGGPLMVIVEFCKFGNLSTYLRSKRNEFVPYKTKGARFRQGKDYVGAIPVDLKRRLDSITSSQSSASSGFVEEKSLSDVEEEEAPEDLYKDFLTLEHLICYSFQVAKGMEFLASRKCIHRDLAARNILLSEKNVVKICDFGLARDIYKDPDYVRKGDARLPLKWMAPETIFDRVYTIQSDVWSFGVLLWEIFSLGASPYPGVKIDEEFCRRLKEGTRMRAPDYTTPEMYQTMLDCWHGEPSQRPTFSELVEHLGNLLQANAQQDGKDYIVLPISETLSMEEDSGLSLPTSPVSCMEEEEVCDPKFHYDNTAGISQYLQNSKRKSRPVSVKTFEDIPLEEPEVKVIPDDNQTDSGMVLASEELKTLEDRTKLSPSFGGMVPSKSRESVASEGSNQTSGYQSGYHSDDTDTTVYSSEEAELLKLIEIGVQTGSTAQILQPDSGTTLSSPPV
The following compounds are listed with their measured IC50 values.

Prompt line: Reported IC50 for O=C(CC(Nc1ccc(Oc2cc(NC(=O)N3CCCC3)ncn2)c(F)c1)C(F)(F)F)Nc1ccccc1 (centres undefined) : what is it?
Response line: 40 nM

Prompt line: Also Cn1cnc(-c2cc3nccc(Oc4ccc(NC(=O)CC(=O)Nc5ccccc5)cc4F)c3s2)c1 ?
Response line: 20 nM

Prompt line: Follow-up entry: COc1ccccc1NC(=O)CC(Nc1ccc(Oc2ccnc3cc(-c4cn(C)cn4)sc23)c(F)c1)C(F)(F)F (centres undefined)
Response line: 20 nM

Prompt line: One more compound: Cn1cnc(-c2cc3nccc(Oc4ccc(NC(CC(=O)Nc5ccc(F)cc5)C(F)(F)F)cc4F)c3s2)c1 (centres undefined)
Response line: 20 nM

###

As shown below, each of these compounds has a reported pIC50 value.
biological target: Hepatocyte growth factor receptor (Homo sapiens); experiment: Inhibition of recombinant GST-fused c-Met expressed in baculovirus infected high five cells by DELFIA
Sequence (P08581 whole entry, the tested form may be a part): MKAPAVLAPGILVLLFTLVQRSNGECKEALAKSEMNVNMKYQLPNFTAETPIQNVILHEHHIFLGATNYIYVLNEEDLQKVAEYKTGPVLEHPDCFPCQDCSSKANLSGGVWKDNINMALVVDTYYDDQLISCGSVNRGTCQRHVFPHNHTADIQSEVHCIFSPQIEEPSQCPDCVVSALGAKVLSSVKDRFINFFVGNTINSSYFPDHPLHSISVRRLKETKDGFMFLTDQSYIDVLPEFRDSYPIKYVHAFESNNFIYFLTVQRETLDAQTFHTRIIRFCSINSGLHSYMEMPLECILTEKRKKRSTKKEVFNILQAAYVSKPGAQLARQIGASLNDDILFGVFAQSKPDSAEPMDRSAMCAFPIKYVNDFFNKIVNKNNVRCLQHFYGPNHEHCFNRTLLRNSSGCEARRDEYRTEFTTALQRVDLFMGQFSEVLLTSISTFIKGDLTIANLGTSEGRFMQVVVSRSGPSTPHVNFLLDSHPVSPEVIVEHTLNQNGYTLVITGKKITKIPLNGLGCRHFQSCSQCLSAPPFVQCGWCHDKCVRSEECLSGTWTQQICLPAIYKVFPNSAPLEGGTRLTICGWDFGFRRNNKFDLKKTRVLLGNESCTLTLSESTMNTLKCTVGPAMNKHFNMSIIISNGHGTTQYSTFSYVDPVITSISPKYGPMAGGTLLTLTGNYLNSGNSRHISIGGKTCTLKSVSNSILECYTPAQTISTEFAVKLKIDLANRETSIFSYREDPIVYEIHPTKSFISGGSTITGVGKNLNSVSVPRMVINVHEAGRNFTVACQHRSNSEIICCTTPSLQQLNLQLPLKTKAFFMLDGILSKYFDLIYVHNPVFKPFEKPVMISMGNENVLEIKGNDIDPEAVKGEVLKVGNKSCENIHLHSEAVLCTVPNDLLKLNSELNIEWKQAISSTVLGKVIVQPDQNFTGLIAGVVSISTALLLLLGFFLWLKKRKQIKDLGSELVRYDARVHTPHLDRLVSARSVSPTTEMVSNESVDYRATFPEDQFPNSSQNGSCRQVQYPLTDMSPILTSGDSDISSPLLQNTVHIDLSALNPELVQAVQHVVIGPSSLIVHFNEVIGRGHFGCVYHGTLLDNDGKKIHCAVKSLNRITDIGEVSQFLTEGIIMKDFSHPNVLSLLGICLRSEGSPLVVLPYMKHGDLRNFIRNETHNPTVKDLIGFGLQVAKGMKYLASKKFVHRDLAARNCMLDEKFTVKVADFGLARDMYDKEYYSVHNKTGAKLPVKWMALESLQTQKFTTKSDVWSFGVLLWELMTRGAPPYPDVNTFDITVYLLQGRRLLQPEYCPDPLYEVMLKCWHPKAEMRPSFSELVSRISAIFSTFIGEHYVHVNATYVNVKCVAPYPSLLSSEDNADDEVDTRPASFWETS
pIC50: −log10 of the molar value.

As a guide, the following entries are already answered.
Prompt line: Dear colleague, I am looking for the recorded pIC50 of the following compound: O=C(CC(Nc1ccc(F)cc1)C(F)(F)F)Nc1ccc(Oc2cc(NC(=O)N3CCCC3)ncn2)c(F)c1 (centres undefined)
Response line: < 5.30

Prompt line: And then COc1ccccc1NC(=O)CC(Nc1ccc(Oc2ccnc3cc(-c4cn(C)cn4)sc23)c(F)c1)C(F)(F)F (centres undefined) , what is it?
Response line: 6.08

Prompt line: Request: O=C(CC(Nc1ccc(Oc2cc(NC(=O)N3CCCC3)ncn2)c(F)c1)C(F)(F)F)Nc1ccccc1 (centres undefined)
Response line: < 5.30

Moving on to another compound below.
Prompt line: Suppose we examine the compound COc1cc2ncnc(Oc3ccc(NC(=O)CC(Nc4ccccc4)C(F)(F)F)cc3F)c2cc1OC (centres undefined) ; what pIC50 value has been reported?
Response line: < 5.30
